# MEASUREMENT TARGET: T1, recombinant PRL-3 (Phosphatase of Regenerating Liver-3) (Homo sapiens, UniProt O75365)
# T1 construct: Phosphatase of Regenerating Liver-3 (PRL-3), human cDNA amplified with gene-specific primers and cloned into pSKB3 (NheI/XhoI); also called apo PRL-3; PTP4A family member; source: E. coli One-Shot BL21 Star DE3, purified (Ni-NTA, TEV cleavage, Superdex 200); not shown: 6XHis, N-terminal, cleaved
# T1 sequence (O75365 1-169): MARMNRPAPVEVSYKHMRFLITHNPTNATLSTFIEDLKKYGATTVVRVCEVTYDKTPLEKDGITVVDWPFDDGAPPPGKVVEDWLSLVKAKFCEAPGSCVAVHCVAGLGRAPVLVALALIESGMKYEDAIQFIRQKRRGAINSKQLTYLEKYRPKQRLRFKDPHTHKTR
# PROCEDURE TEXT: BLI; BLItz; nanobody (626.57 nM) loaded on Anti-Penta-HIS (HIS1K) biosensors; PRL-3 as analyte at six concentrations; association 5 min, dissociation 2 min; 1X kinetics buffer; global fit
# EXPERIMENTAL SETUP: both partners purified
pKd: −log10 of the molar value.
Listing: pKd of selected binders
PARAMETER: pKd

• anti-PRL-3 nanobody 84 (VHH, also called NB 84; source: E. coli One-Shot BL21 Star DE3 (pMES4), purified (Ni-NTA, Superdex 200); not shown: 6XHis, C-terminal, kept) VHH: QVQLQESGGGLVQAGGSLGLSCAASRSIFNFKVMGWYRQAPGKQRELVASITNSDNTYYADSVKGRFTISREDAKTTMYLEMNSLKPEDTTVYRCYGQNWGLRATTYWGQGTQVTVSS = 6.99
• anti-PRL-3 nanobody 91 (VHH, 91 is its standard; also called NB 91; nanobody 91-His; source: E. coli One-Shot BL21 Star DE3 (pMES4), purified (Ni-NTA, Superdex 200); not shown: 6XHis, C-terminal, kept) VHH: QVQLQESGGGLVQTGGSLRLSCAASQSTFNFDVMGWYRLAPGKQREFLTSITNGGNIYYADSVKGRFTIARDDSKTTMYLEMNSLKPEDTAVYTCYGQTHKPRVTTSWGQGTQVTVSS = 6.69
• anti-PRL-3 nanobody 26 (VHH, also called NB 26; nanobody 26-His; source: E. coli One-Shot BL21 Star DE3 (pMES4), purified (Ni-NTA, Superdex 200); not shown: 6XHis, C-terminal, kept) VHH: QVQLQESGGGLVQPGGSLKLSCVVTGLHYYTEGWFRQAPGKEREGVSCISSSDGRTDYIDSVKGRFTISEDNDNKTVYLQMNTLKPDDTGVYYCVAERGPRGSTWWETYDYWGQGTHVTVSS = 7.54
• anti-PRL-3 nanobody 16 (VHH, also called NB 16; source: E. coli One-Shot BL21 Star DE3 (pMES4), purified (Ni-NTA, Superdex 200); not shown: 6XHis, C-terminal, kept) VHH: QVQLQESGGGLVQTGGSLRLSCAASQSTFNFDVMGWYRLAPGKQREFLTSITNGGNIYYADSVKGRFTTARDDSKTTMYLEMNSLKPEDTAVYTCYGQTHKPRVTTSWGQGTQVTVSS = 6.52
